- target.or.test.system: Cbl-b (Homo sapiens (Human), UniProt Q13191)
- Sequence (Q13191 40-426): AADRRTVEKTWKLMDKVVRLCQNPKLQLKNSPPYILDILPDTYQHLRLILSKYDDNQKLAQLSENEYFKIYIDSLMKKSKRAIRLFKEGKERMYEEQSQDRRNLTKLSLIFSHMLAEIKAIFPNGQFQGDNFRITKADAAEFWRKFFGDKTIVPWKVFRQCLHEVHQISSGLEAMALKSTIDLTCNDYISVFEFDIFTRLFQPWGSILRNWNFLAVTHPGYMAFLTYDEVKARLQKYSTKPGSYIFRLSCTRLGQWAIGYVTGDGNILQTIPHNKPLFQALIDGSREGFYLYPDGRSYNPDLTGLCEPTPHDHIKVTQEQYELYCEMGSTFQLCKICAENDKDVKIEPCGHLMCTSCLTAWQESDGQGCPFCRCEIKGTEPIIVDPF
- protocol.notes: Cbl-b LCK Ub TR-FRET assay (Cbl-b Lck HTRF)
- Assay type: biochemical
- test.settings: ratio C-cbl Lck HTRF IC50 / Cbl-b Lck HTRF IC50
observed.property: fold-selectivity (Cbl-b over C-cbl) (x)
Only the number, expressed in x, is required.

molecule: Cn1cnnc1[C@]1(c2cccc(N3Cc4c(cc(CNC5(C)CCC5)cc4C(F)(F)F)C3=O)c2)C[C@H]([S@@+](C)[O-])C1 (single isomer, unassigned)
uom: x
fold-selectivity (Cbl-b over C-cbl): 7.2
--
molecule: CO[C@H]1C[C@@](c2cccc(N3Cc4c(cc([C@H](C)NC5(C)CCC5)cc4C(F)(F)F)C3=O)c2)(c2nncn2C)C1 (single isomer, unassigned)
uom: x
fold-selectivity (Cbl-b over C-cbl): 3.4
--
molecule: C[C@H]1C[C@](c2cccc(N3Cc4c(cc(CNC5(C)CCC5)cc4C(F)(F)F)C3=O)c2)(c2nncn2C)O1
uom: x
fold-selectivity (Cbl-b over C-cbl): 5.7
--
molecule: CC[C@@H](c1cccc(N2Cc3c(Cl)cc(CNC4(C)CCC4)cc3C2=O)c1)c1nncn1C (single isomer, unassigned)
uom: x
fold-selectivity (Cbl-b over C-cbl): 0.85

Q. What value of fold-selectivity (Cbl-b over C-cbl) has been recorded for this entry: CC(C)[C@H]1CN(C)CCN1Cc1cc(Cl)c2c(c1)C(=O)N(c1cccc(C3(c4nncn4C)CC4(COC4)C3)c1)C2 (single isomer, unassigned)
A. 2.3

* * *

Reported (fold-selectivity) Cbl-b and C-Cbl Selectivity by item:
- target.or.test.system: Cbl-b (Homo sapiens (Human), UniProt Q13191)
- protocol.notes: Cbl-b LCK Ub TR-FRET assay (Cbl-b Lck HTRF)
- Format: biochemical
- test.settings: ratio C-cbl Lck HTRF IC50 / Cbl-b Lck HTRF IC50
Only the number, expressed in x, is required.

Record excerpt, results attached:
compound: Cn1cnnc1[C@](O)(c1ccccc1)c1cccc(N2Cc3c(Cl)cc(CNC4(C)CCC4)cc3C2=O)c1 (single isomer, unassigned) [Compound 411]
meas.value: 1.0
--
compound: CO[C@H]1C[C@](c2cccc(N3Cc4c(cc(CN5CCCC5)cc4C(F)(F)F)C3=O)c2)(c2nncn2C)C1 [Compound 418]
meas.value: 7.3

Q. What value of (fold-selectivity) Cbl-b and C-Cbl Selectivity has been recorded for this entry: CO[C@H]1C[C@](c2cccc(N3Cc4c(cc(CNCC(C)(C)F)cc4C(F)(F)F)C3=O)c2)(c2nncn2C)C1 [Compound 483]
A. 5.8

Q. What value of (fold-selectivity) Cbl-b and C-Cbl Selectivity has been recorded for this entry: CO[C@H]1C[C@](c2cccc(N3Cc4c(cc(CNCC5(C)CC5(F)F)cc4C(F)(F)F)C3=O)c2)(c2nncn2C)C1 (stereo partly drawn) [Compound 501]
A. 4.8

Q. What value of (fold-selectivity) Cbl-b and C-Cbl Selectivity has been recorded for this entry: CO[C@H]1C[C@](c2cccc(N3Cc4c(cc(CNC5(C)COC5)cc4C(F)(F)F)C3=O)c2)(c2nncn2C)C1 [Compound 479]
A. 8.6

Q. What value of (fold-selectivity) Cbl-b and C-Cbl Selectivity has been recorded for this entry: Cn1cnnc1[C@@H](c1cc(Cl)cc(N2Cc3c(cc(CNC4(C)CCC4)cc3C(F)(F)F)C2=O)c1)C1COC1 (single isomer, unassigned) [Compound 408]
A. 1.4

* * *

- target.or.test.system: Cbl-b (Homo sapiens (Human), UniProt Q13191)
- protocol.notes: Cbl-b LCK Ub TR-FRET assay (Cbl-b Lck HTRF)
- Type: biochemical
- test.settings: ratio C-cbl Lck HTRF IC50 / Cbl-b Lck HTRF IC50
Reported fold-selectivity (Cbl-b over C-cbl) by item:
Only the number, expressed in x, is required.

compound: CC(=O)N1CC(c2cccc(N3Cc4c(cc(CNC5(C)CCC5)cc4C(F)(F)F)C3=O)c2)(c2nncn2C)C1 [Compound 112]
target.or.test.system: Cbl-b (Homo sapiens (Human), UniProt Q13191)
uom: x
meas.value: 1.0

compound: Cn1cnnc1C1(c2cccc(N3Cc4c(cc(CNC5(C)CCC5)cc4C(F)(F)F)C3=O)c2)CSC1.O=CO [Compound 329]
target.or.test.system: Cbl-b (Homo sapiens (Human), UniProt Q13191)
uom: x
meas.value: 1.8

compound: CCNc1cc(N2Cc3c(cc(CNC4(C)CCC4)cc3C(F)(F)F)C2=O)cc([C@]2(c3nncn3C)C[C@@H](C)C2)c1 [Compound 91]
target.or.test.system: Cbl-b (Homo sapiens (Human), UniProt Q13191)
uom: x
meas.value: 0.8

compound: COC1CC([C@@H](c2cccc(N3Cc4c(cc(CNC5(C)CCC5)cc4C(F)(F)F)C3=O)c2)c2nncn2C)C1 (single isomer, unassigned) [Compound 134]
target.or.test.system: Cbl-b (Homo sapiens (Human), UniProt Q13191)
uom: x
meas.value: 1.8

compound: CO[C@H]1C[C@@](c2cc(NCCC#N)cc(N3Cc4c(cc(CNC5(C)CCC5)cc4C(F)(F)F)C3=O)c2)(c2nncn2C)C1 [Compound 224]
target.or.test.system: Cbl-b (Homo sapiens (Human), UniProt Q13191)
uom: x
meas.value: 5.0

Q. What value of fold-selectivity (Cbl-b over C-cbl) has been recorded for this entry: C[C@H](NC1(C)CCC1)c1cc2c(c(C(F)(F)F)c1)CN(c1cccc(C(c3nncn3C)C3COC3)c1)C2=O (stereo partly drawn) [Compound 285]
A. 1.1

* * *

- target.or.test.system: Human Cbl-b (residues 40-426) (Homo sapiens (Human), UniProt Q13191)
- Sequence (Q13191 40-426): as above
- protocol.notes: Cbl-b SPR assay
- Format: binding
- test.settings: C-cbl SPR Kd vs Cbl-b SPR Kd
observed.property: Fold of selectivity (×)
Only the number, expressed in ×, is required.

Record excerpt, results attached:
compound: CC(C)O[C@H]1C[C@@](c2cccc(N3Cc4c(cc(CNC5(C)CCC5)cc4C(F)(F)F)C3=O)c2)(c2nncn2C)C1
uom: ×
Fold of selectivity: 13
//
compound: Cn1cnnc1[C@H](c1cccc(N2Cc3c(cc(CNC4(C)CCC4)cc3C(F)(F)F)C2=O)c1)[C@H]1C[C@@H](C)C1 (single isomer, unassigned)
uom: ×
Fold of selectivity: 11
//
compound: Cn1cnnc1[C@]1(c2cccc(N3Cc4c(cc(CNC5(C)CCC5)cc4C(F)(F)F)C3=O)c2)C[C@@H](CC#N)C1
uom: ×
Fold of selectivity: 6.6

Let us move to another entry and its Fold of selectivity.
Q. What value of Fold of selectivity has been recorded for this entry: Cn1cnnc1[C@H](c1cccc(N2Cc3c(cc(CNC4(C)CCC4)cc3C(F)(F)F)C2=O)c1)C1CC(OCC(F)F)C1 (single isomer, unassigned) [Compound 262]
A. 12

* * *

Reported IC50 by item:
- target.or.test.system: Cbl-b (Homo sapiens (Human), UniProt Q13191)
- protocol.notes: Cbl-b LCK Ub TR-FRET assay (Cbl-b Lck HTRF)
- Assay type: biochemical
- test.settings: Cbl-b LCK Ub TR-FRET, Example 121
Only the number, expressed in µM, is required.

Record excerpt, results attached:
compound: C[C@H](NC1(C)CCC1)c1cc2c(c(C(F)(F)F)c1)CN(c1cccc([C@@H](c3nncn3C)C3COC3)c1)C2=O (single isomer, unassigned)
meas.value: 0.26
--
compound: CCC(NCc1cc2c(c(C(F)(F)F)c1)CN(c1cccc([C@]3(c4nncn4C)C[C@H](OC)C3)c1)C2=O)C(=O)OC (stereo partly drawn)
meas.value: 0.13
--
compound: CO[C@H]1C[C@](c2cccc(N3Cc4c(cc(CNCC5CC5)cc4C(F)(F)F)C3=O)c2)(c2nncn2C)C1
meas.value: 0.011
--
compound: C[C@@H](NC1(C)CCC1)c1cc2c(c(C(F)F)c1)CN(c1cccc([C@@H](c3nncn3C)C3COC3)c1)C2=O (single isomer, unassigned)
meas.value: 9.9
--
compound: CO[C@H]1C[C@](c2cccc(N3Cc4c(cc(CNCC5(CO)CCC5)cc4C(F)(F)F)C3=O)c2)(c2nncn2C)C1
meas.value: 0.014

Let us move to another entry and its IC50.
Q. What value of IC50 has been recorded for this entry: `CO[C@H]1C[C@](c2cccc(N3Cc4c(cc(CNCC(C)(C)F)cc4C(F)(F)F)C3=O)c2)(c2nncn2C)C1`
A. 0.01

* * *

- target.or.test.system: c-Cbl (residues 47-435) (Homo sapiens (Human))
- Sequence (P22681 47-435): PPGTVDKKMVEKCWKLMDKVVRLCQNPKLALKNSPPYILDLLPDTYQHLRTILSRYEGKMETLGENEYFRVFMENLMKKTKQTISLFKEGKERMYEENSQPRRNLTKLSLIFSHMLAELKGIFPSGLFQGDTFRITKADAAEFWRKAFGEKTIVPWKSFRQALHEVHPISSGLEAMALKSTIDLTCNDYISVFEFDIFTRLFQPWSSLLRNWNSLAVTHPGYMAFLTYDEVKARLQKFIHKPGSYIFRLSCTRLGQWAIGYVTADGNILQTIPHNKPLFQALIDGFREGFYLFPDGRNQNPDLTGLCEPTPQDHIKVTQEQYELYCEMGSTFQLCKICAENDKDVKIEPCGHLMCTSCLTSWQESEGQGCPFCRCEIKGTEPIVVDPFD
- protocol.notes: c-Cbl SPR assay
- Format: binding
- test.settings: 20° C.
Reported Kd by item:
Only the number, expressed in nM, is required.

Record excerpt, results attached:
compound: CCc1cc(N2Cc3c(cc(CNC4(C)CCC4)cc3C(F)(F)F)C2=O)cc([C@]2(c3nncn3C)C[C@H](OC)C2)c1
target.or.test.system: c-Cbl (residues 47-435) (Homo sapiens (Human))
uom: nM
Kd: 47
//
compound: Cn1cnnc1[C@@H](c1cccc(N2Cc3c(cc(CNC4(C)CCC4)cc3C(F)(F)F)C2=O)c1)C1CC1 (single isomer, unassigned)
target.or.test.system: c-Cbl (residues 47-435) (Homo sapiens (Human))
uom: nM
Kd: 1.2
//
compound: Cn1cnnc1C1(c2cc(NC3CCCC3)nc(N3Cc4c(cc(CNC5(C)CCC5)cc4C(F)(F)F)C3=O)c2)CC2(COC2)C1
target.or.test.system: c-Cbl (residues 47-435) (Homo sapiens (Human))
uom: nM
Kd: 100
//
compound: Cn1cnnc1C(c1cccc(N2Cc3c(cc(CNC4(C)CCC4)cc3C(F)(F)F)C2=O)c1)[C@H]1C[C@@H](CC#N)C1 (single isomer, unassigned) [Compound 362]
target.or.test.system: c-Cbl (residues 47-435) (Homo sapiens (Human))
uom: nM
Kd: 59
//
compound: Cn1cnnc1[C@@](O)(c1cccc(N2Cc3c(cc(CNC4(C)CCC4)cc3C(F)(F)F)C2=O)c1)C1COC1 (single isomer, unassigned)
target.or.test.system: c-Cbl (residues 47-435) (Homo sapiens (Human))
uom: nM
Kd: 220

Let us move to another entry and its Kd.
Q. What value of Kd has been recorded for this entry: `Cn1cnnc1[C@]1(c2cccc(N3Cc4c(cc(CNC5(C)CCC5)cc4C(F)(F)F)C3=O)c2)C[C@H](OCF)C1`
A. 39
